# System: Plasma
# experiment: Antiplatelet activity against citreated rabbit platelet-rich plasma assessed as inhibition of arachidonic acid-induced platelet aggregation at 150 uM by turbidimetric method
# Type: functional
# experimental-setup: Oryctolagus cuniculus
Quick reference for inhibition at 150 µM among some compounds
result-type: inhibition at 150 µM (%)

>>> observed_result("Cc1cc2c(cc1S(=O)(=O)Oc1ccccc1C(=O)N/N=C\\c1ccc(C(=O)O)cc1)OCO2")
0
>>> observed_result("Cc1cc2c(cc1S(=O)(=O)Oc1cccc(C(=O)N/N=C\\c3ccc([N+](=O)[O-])cc3)c1)OCO2")
81.5
>>> observed_result("Cc1cc2c(cc1S(=O)(=O)Oc1cccc(C(=O)N/N=C\\c3ccccc3)c1)OCO2")
97
>>> observed_result("Cc1cc2c(cc1S(=O)(=O)Oc1cccc(C(=O)N/N=C\\c3ccc(/C(N)=N\\O)cc3)c1)OCO2")
100
>>> observed_result("Cc1cc2c(cc1S(=O)(=O)Oc1cccc(C(=O)N/N=C\\c3ccc(C#N)cc3)c1)OCO2")
100
>>> observed_result("CC(=O)Oc1ccccc1C(=O)O")
71.6
>>> observed_result("Cc1cc2c(cc1S(=O)(=O)Oc1cccc(/C=N/NC(=O)c3ccncc3)c1)OCO2")
94.8
>>> observed_result("Cc1cc2c(cc1S(=O)(=O)Oc1ccc(C(=O)N/N=C\\c3ccc(C(=O)O)cc3)cc1)OCO2")
90.8
>>> observed_result("Cc1cc2c(cc1S(=O)(=O)Oc1cccc(C(=O)N/N=C\\c3ccncc3)c1)OCO2")
82
>>> observed_result("Cc1cc2c(cc1S(=O)(=O)Oc1cccc(C(=O)N/N=C\\c3ccc(N)cc3)c1)OCO2")
80
>>> observed_result("Cc1cc2c(cc1S(=O)(=O)Oc1cccc(C(=O)N/N=C\\c3ccc(C(=O)O)cc3)c1)OCO2")
0

###

# Test system: Plasma
# experiment: Antiplatelet activity against citreated rabbit platelet-rich plasma assessed as collagen-induced platelet aggregation at 150 uM by turbidimetric method
# Format: functional, Oryctolagus cuniculus
Quick reference for Activity among some compounds
result-type: Activity

>>> observed_result("Cc1cc2c(cc1S(=O)(=O)Oc1cccc(/C=N/NC(=O)c3ccncc3)c1)OCO2")
"0%"
>>> observed_result("Cc1cc2c(cc1S(=O)(=O)Oc1cccc(C(=O)N/N=C\\c3ccc(C(=O)O)cc3)c1)OCO2")
"100%"
>>> observed_result("Cc1cc2c(cc1S(=O)(=O)Oc1cccc(C(=O)N/N=C\\c3ccc(/C(N)=N\\O)cc3)c1)OCO2")
"0%"
>>> observed_result("Cc1cc2c(cc1S(=O)(=O)Oc1ccccc1C(=O)N/N=C\\c1ccc(C(=O)O)cc1)OCO2")
"100%"
>>> observed_result("Cc1cc2c(cc1S(=O)(=O)Oc1ccc(C(=O)N/N=C\\c3ccc(C(=O)O)cc3)cc1)OCO2")
"59%"
>>> observed_result("Cc1cc2c(cc1S(=O)(=O)Oc1cccc(C(=O)N/N=C\\c3ccc(C#N)cc3)c1)OCO2")
"0%"
>>> observed_result("Cc1cc2c(cc1S(=O)(=O)Oc1cccc(C(=O)N/N=C\\c3ccc(N)cc3)c1)OCO2")
"49.2%"
>>> observed_result("Cc1cc2c(cc1S(=O)(=O)Oc1cccc(C(=O)N/N=C\\c3ccccc3)c1)OCO2")
"45.6%"
>>> observed_result("Cc1cc2c(cc1S(=O)(=O)Oc1cccc(C(=O)N/N=C\\c3ccc([N+](=O)[O-])cc3)c1)OCO2")
"69.6%"
>>> observed_result("Cc1cc2c(cc1S(=O)(=O)Oc1cccc(C(=O)N/N=C\\c3ccncc3)c1)OCO2")
"59%"
>>> observed_result("CC(=O)Oc1ccccc1C(=O)O")
"17.5%"

The measurements presented in this section are drawn from ChEMBL document CHEMBL1149777.
